Sourced from ChEMBL document CHEMBL1150518

// values below are pIC50; system is Type-2 angiotensin II receptor (Homo sapiens)
Sequence (P50052 whole entry): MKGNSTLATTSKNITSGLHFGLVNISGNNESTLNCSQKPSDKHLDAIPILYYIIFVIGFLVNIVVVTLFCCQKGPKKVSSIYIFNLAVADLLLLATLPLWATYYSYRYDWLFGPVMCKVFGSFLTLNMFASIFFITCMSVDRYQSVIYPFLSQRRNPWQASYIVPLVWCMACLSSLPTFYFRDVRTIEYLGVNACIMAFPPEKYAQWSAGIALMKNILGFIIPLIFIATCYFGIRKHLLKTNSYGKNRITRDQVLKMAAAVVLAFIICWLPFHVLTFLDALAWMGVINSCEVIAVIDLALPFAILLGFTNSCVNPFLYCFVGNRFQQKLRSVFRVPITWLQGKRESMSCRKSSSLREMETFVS
For clarity, pIC50 is expressed as the negative log10 of concentration in mol/L.

CCCc1nc(CC)c(C(=O)OCc2cccc(C(=O)c3ccccc3)c2)n1Cc1ccc(-c2ccccc2S(=O)(=O)NC(=O)OCCC(C)C)cc1F; 9.05
CCCc1nc(CC)c(C(=O)OCc2ccccc2OC)n1Cc1ccc(-c2ccccc2S(=O)(=O)NC(=O)OCCC(C)C)cc1F; 9.00

// below: pIC50 requested for another molecule
### Prompt Dear colleague, I am looking for the recorded pIC50 of the following molecule: `CCCOC(=O)NS(=O)(=O)c1ccccc1-c1ccc(Cn2c(CCC)nc(CC)c2C(=O)OCc2ccccc2C(=O)c2ccccc2)c(F)c1`
### Response 8.80
